Hey, just so you know, these numbers are from patent US20200353088A1.

- Assayed System: human AMY1(a) receptor (CTR/RAMP1), transiently transfected in Cos 7 cells (human), P30988
- Sequence (P30988 25-474, chain 1 of 2): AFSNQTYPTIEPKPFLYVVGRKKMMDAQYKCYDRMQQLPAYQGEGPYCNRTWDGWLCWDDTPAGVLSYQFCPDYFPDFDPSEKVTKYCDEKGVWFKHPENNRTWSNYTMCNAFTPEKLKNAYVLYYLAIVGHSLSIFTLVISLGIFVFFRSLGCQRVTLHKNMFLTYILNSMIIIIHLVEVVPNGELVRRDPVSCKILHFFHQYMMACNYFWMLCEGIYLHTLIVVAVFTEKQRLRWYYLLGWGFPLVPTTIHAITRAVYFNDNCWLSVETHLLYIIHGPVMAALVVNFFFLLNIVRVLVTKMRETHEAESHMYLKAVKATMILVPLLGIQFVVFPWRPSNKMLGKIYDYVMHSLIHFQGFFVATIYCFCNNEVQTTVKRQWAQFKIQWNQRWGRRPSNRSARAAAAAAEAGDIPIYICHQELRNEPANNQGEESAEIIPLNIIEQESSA
- Sequence (O60894 27-148, chain 2 of 2, further chain): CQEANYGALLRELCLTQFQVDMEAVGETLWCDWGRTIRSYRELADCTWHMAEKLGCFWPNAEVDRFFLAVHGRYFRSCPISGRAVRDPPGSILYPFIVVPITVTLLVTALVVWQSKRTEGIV
- Experiment: cell-based or functional assay
Where no end group is shown, it is not given here. The star is where a group is joined. Ethyl(2-palmitoyloxy) = CCCCCCCCCCCCCCCC(=O)OCC*
Each entry below carries its reported A2 (antilog of the negative pA2; cAMP assay, Cos 7).
Answer with the figure and its unit, nothing else.

Below: 3 binders and their reported A2 (antilog of the negative pA2; cAMP assay, Cos 7).
CVTHRLAGLLSRSGGVVKNNFVPTNVGSKAF (here or on the partner: Cys 7 (CGRP numbering; residue 1 of the entry) S-conjugated to 2-(palmitoyloxy)ethyl (S-Pam); C-terminal amide) [7C(S-Pam) CGRP7-37 B1] ... 2.2 nM
C(Ethyl(2-palmitoyloxy))THRLAGLLSRSGGVVKNNFVPTNVGSKAF-NH2 [V8C(S-Pam) CGRP8-37 A4] ... 7.1 nM
VTHRLAGLLSRSGGVVC(Ethyl(2-palmitoyloxy))NNFVPTNVGSKAF-NH2 [K24C(S-Pam) CGRP8-37 A5] ... 1.8 nM

IN: Quick check: A2 (antilog of the negative pA2; cAMP assay, Cos 7) of CVTHRLAGLLSRSGGVVKNNFVPTNVGSKAF-NH2 [CGRP7-37 B] ?
OUT: 76 nM
